In this section we review reported pIC50 values for a set of binders.
ASSAYED_SYSTEM: Bcat-Halo (UniProt P35222)
Sequence (P35222 whole entry): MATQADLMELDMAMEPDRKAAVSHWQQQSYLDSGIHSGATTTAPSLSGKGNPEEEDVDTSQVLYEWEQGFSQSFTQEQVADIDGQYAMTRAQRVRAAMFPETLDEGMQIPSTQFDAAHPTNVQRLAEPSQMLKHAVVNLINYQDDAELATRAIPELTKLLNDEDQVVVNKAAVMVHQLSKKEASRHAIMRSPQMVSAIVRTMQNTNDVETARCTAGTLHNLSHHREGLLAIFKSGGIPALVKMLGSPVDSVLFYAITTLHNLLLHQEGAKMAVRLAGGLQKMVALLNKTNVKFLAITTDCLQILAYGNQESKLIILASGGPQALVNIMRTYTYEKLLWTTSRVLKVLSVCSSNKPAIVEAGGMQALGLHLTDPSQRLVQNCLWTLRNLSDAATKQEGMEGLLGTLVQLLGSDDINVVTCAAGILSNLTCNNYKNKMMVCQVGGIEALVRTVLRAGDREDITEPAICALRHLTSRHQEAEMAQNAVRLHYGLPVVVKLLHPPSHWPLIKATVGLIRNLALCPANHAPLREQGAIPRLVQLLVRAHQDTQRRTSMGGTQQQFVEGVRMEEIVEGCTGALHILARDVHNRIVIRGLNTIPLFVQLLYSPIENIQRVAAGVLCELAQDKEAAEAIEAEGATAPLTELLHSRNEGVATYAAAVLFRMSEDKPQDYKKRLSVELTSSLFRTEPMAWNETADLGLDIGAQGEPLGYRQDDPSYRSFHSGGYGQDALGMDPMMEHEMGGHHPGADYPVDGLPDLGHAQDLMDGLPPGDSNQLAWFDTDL
ASSAY_COMMENT: NanoBRET (Abs IC50) in HEK293 cells; Bcat-Halo / TCF4-Luc
Starred links: 1 amine or outer side, 2 acyl side, 3 side chain; linkers in the order of their positions; H or OH if unused. Positions of bridges follow the written chain, without caps; N, C: chain ends. Non-standard residues stand in square brackets, D forms with d. Primed or numbered codes have the meaning given here. PyrS2″ = (S)-3-amino-1-((pent-4-en-1-yloxy)carbonyl)pyrrolidine-3-carboxylic acid (stapling residue), C=CCCCOC(=O)N1CC[C@@](N[*:1])(C(=O)[*:2])C1; B5(5) = 2,2-bis(4-pentenyl)glycine, 2-amino-2-(pent-4-en-1-yl)hept-6-enoic acid (stitching residue), C=CCCCC(CCCC=C)(N[*:1])C(=O)[*:2]; Phe(3-COOH) = N[C@@H](Cc1cccc(C(=O)O)c1)C(=O)O; Phe(2-Cl) = N[C@@H](Cc1ccccc1Cl)C(=O)O; Bta = N[C@@H](Cc1csc2ccccc12)C(=O)O; αAllylPro = C=CC[C@@]1(C(=O)O)CCCN1; tBuAla = CC(C)(C)C[C@H](N)C(=O)O
By convention, pIC50 is the negative base-10 log of a molar concentration.

{"columns": ["BINDER", "pIC50"],
 "data": [
  ["Ac-[αAllylPro]D[tBuAla][B5(5)]D[Phe(3-COOH)]AAFS[PyrS2″][Phe(2-Cl)][Bta]V-NH2 (staple 1-4, 4-11) [I-2028]", 4.75]
]}

Consider now this further binder.
Prompt: Tell me its pIC50 given Ac-[αAllylPro]D[tBuAla][B5(5)]D[Phe(3-COOH)]AAFN[PyrS2″][Phe(2-Cl)][Bta]V-NH2 (staple 1-4, 4-11) [I-2032] as the entry.
Response: 4.68
